Assay read-out pKd; system under study: galectin-1 (Homo sapiens).
Sequence (P09382 whole entry): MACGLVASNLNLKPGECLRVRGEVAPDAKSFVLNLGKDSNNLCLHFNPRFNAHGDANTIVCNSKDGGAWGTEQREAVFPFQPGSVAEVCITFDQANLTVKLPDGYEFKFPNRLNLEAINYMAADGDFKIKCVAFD
pKd: −log10 of the molar value.
RECORDED_ENDPOINT: pKd

{"STRUCTURE_STRING": "OC[C@H]1OC=C[C@@H](O)[C@H]1O", "OBSERVED_RESULT": 2.80}
{"STRUCTURE_STRING": "Cn1c(CO[C@@H]2C=CO[C@H](CO)[C@@H]2O)nc2ccc(C(=O)O)cc21", "OBSERVED_RESULT": 2.89}

----------
MEASURED_ON: galectin-9C (C-terminal domain) (Homo sapiens, UniProt O00182)
Construct: galectins (N = N-terminal domain, C = C-terminal domain); made in house
Sequence (O00182 227-355 limits assumed): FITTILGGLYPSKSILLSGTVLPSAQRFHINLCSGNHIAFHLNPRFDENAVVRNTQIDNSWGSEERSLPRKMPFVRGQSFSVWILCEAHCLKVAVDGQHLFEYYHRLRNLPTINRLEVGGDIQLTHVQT
RUN_DESCRIPTION: Competitive fluorescence polarization assay, galectin-9C
Assay type: binding
APPLIED_CONDITIONS: mean ± SEM of n = 4–8
pKd: −log10 of the molar value.
RECORDED_ENDPOINT: pKd

Req: For the molecule COC(=O)c1ccc2ccc(CO[C@@H]3C=CO[C@H](CO)[C@@H]3O)nc2c1 , give its reported pKd.
Resp: < 2.82

----------
MEASURED_ON: galectin-8N (galectin-8 N-terminal domain) (Homo sapiens, UniProt O00214)
Construct: selective ligand for the galectin-8 N-terminal domain (galectin-8N); made in house
Sequence (O00214 19-152 limits assumed): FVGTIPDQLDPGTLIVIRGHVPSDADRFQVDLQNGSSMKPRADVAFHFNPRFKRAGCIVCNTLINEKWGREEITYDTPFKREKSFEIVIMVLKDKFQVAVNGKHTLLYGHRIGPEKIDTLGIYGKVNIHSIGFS
RUN_DESCRIPTION: Competitive fluorescence polarization assay, galectin-8N
Format: binding
APPLIED_CONDITIONS: mean ± SEM of n = 4–8
pKd: −log10 of the molar value.
RECORDED_ENDPOINT: pKd

{"STRUCTURE_STRING": "Cn1c(CO[C@@H]2C=CO[C@H](CO)[C@@H]2O)nc2cc(C(=O)O)ccc21", "MEASURED_ON": "galectin-8N (galectin-8 N-terminal domain) (Homo sapiens, UniProt O00214)", "pKd": 3.09}
{"STRUCTURE_STRING": "COC(=O)c1ccc2ccc(CO[C@@H]3C=CO[C@H](CO)[C@@H]3O)nc2c1", "MEASURED_ON": "galectin-8N (galectin-8 N-terminal domain) (Homo sapiens, UniProt O00214)", "pKd": 3.64}
{"STRUCTURE_STRING": "Cn1c(CO[C@@H]2C=CO[C@H](CO)[C@@H]2O)nc2ccc(C(=O)O)cc21", "MEASURED_ON": "galectin-8N (galectin-8 N-terminal domain) (Homo sapiens, UniProt O00214)", "pKd": 4.32}
{"STRUCTURE_STRING": "CCOC(=O)c1ccc2c(c1)nc(CO[C@@H]1C=CO[C@H](CO)[C@@H]1O)n2C", "MEASURED_ON": "galectin-8N (galectin-8 N-terminal domain) (Homo sapiens, UniProt O00214)", "pKd": 3.16}
{"STRUCTURE_STRING": "O=C(O)c1ccc2nc(CO[C@@H]3C=CO[C@H](CO)[C@@H]3O)[nH]c2c1", "MEASURED_ON": "galectin-8N (galectin-8 N-terminal domain) (Homo sapiens, UniProt O00214)", "pKd": 4.34}

1 = COC(=O)c1ccc2nc(CO[C@@H]3C=CO[C@H](CO)[C@@H]3O)n(C)c2c1
2 = O=C(O)c1ccc2ccc(CO[C@@H]3C=CO[C@H](CO)[C@@H]3O)nc2c1
Req: Please state the entry with greater pKd among 1 and 2 . Let me know the label of the one you choose.
Resp: 2
(2: 4.32, 1: 3.40)

A = COC(=O)c1ccc2nc(CO[C@@H]3C=CO[C@H](CO)[C@@H]3O)[nH]c2c1
B = OC[C@H]1OC=C[C@@H](O)[C@H]1O
Req: Hi, I'm comparing two records. Which one has the lower pKd, A or B ? Please reply using the label of the selected record.
Resp: B
(B: 2.89, A: 3.74)

----------
Overview of recorded pKd for various molecules
MEASURED_ON: galectin-9N (N-terminal domain) (Homo sapiens)
Construct: galectins (N = N-terminal domain, C = C-terminal domain); made in house
Sequence (O00182 17-148 limits assumed): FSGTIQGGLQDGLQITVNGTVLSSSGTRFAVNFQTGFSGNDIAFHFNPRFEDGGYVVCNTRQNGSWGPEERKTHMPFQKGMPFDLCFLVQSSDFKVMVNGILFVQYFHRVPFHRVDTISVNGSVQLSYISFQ
RUN_DESCRIPTION: Competitive fluorescence polarization assay, galectin-9N
Format: binding
APPLIED_CONDITIONS: mean ± SEM of n = 4–8
pKd: −log10 of the molar value.

Example cases with answers are listed next.
{"STRUCTURE_STRING": "COC(=O)c1ccc2nc(CO[C@@H]3C=CO[C@H](CO)[C@@H]3O)n(C)c2c1", "OBSERVED_RESULT": "< 2.82"}
{"STRUCTURE_STRING": "O=C(O)c1ccc2ccc(CO[C@@H]3C=CO[C@H](CO)[C@@H]3O)nc2c1", "OBSERVED_RESULT": 2.74}
{"STRUCTURE_STRING": "O=C(O)c1ccc2nc(CO[C@@H]3C=CO[C@H](CO)[C@@H]3O)[nH]c2c1", "OBSERVED_RESULT": "< 2.82"}
{"STRUCTURE_STRING": "COC(=O)c1ccc2ccc(CO[C@@H]3C=CO[C@H](CO)[C@@H]3O)nc2c1", "OBSERVED_RESULT": 3.00}
{"STRUCTURE_STRING": "COC(=O)c1ccc2nc(CO[C@@H]3C=CO[C@H](CO)[C@@H]3O)[nH]c2c1", "OBSERVED_RESULT": "< 2.82"}

Req: Tell me pKd reported for OC[C@H]1OC=C[C@@H](O)[C@H]1O
Resp: < 2.82

Req: Give pKd for Cn1c(CO[C@@H]2C=CO[C@H](CO)[C@@H]2O)nc2ccc(C(=O)O)cc21
Resp: 2.85

Req: # return recorded pKd for entry Cn1c(CO[C@@H]2C=CO[C@H](CO)[C@@H]2O)nc2cc(C(=O)O)ccc21
Resp: < 2.82

----------
MEASURED_ON: galectin-4N (N-terminal domain) (Homo sapiens, UniProt P56470)
Construct: galectins (N = N-terminal domain, C = C-terminal domain); made in house
Sequence (P56470 19-150 limits assumed): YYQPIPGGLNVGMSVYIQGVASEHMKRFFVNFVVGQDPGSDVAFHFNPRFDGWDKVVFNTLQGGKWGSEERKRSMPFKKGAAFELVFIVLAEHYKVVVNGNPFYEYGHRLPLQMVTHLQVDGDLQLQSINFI
RUN_DESCRIPTION: Competitive fluorescence polarization assay, galectin-4N
Type: binding
APPLIED_CONDITIONS: mean ± SEM of n = 4–8
pKd: −log10 of the molar value.
RECORDED_ENDPOINT: pKd

{"STRUCTURE_STRING": "OC[C@H]1OC=C[C@@H](O)[C@H]1O", "pKd": 2.62}
{"STRUCTURE_STRING": "O=C(O)c1ccc2nc(CO[C@@H]3C=CO[C@H](CO)[C@@H]3O)[nH]c2c1", "pKd": 2.85}
{"STRUCTURE_STRING": "COC(=O)c1ccc2nc(CO[C@@H]3C=CO[C@H](CO)[C@@H]3O)n(C)c2c1", "pKd": 2.77}

I = Cn1c(CO[C@@H]2C=CO[C@H](CO)[C@@H]2O)nc2cc(C(=O)O)ccc21
II = Cn1c(CO[C@@H]2C=CO[C@H](CO)[C@@H]2O)nc2ccc(C(=O)O)cc21
Req: pKd comparison. Which is larger, I or II ? The response must carry the label of the picked entry.
Resp: II
(II: 2.85, I: 2.44)

----------
MEASURED_ON: galectin-2 (Homo sapiens)
Sequence (P05162 whole entry): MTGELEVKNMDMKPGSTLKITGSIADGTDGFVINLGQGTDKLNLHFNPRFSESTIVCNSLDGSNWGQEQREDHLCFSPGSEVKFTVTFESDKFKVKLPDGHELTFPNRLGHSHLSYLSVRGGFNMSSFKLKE
RUN_DESCRIPTION: Competitive fluorescence polarization assay, galectin-2
Format: binding
APPLIED_CONDITIONS: mean ± SEM of n = 4–8
pKd: −log10 of the molar value.
RECORDED_ENDPOINT: pKd

{"COMPOUND": "Cn1c(CO[C@@H]2C=CO[C@H](CO)[C@@H]2O)nc2ccc(C(=O)O)cc21 [6a]", "pKd": 2.85}
{"COMPOUND": "O=C(O)c1ccc2ccc(CO[C@@H]3C=CO[C@H](CO)[C@@H]3O)nc2c1 [compound 9]", "pKd": 2.96}
{"COMPOUND": "O=C(O)c1ccc2nc(CO[C@@H]3C=CO[C@H](CO)[C@@H]3O)[nH]c2c1 [6c]", "pKd": 3.00}

----------
# collection of Kd values tested on galectin-3 (Homo sapiens, UniProt P17931)
# Sequence (P17931 whole entry): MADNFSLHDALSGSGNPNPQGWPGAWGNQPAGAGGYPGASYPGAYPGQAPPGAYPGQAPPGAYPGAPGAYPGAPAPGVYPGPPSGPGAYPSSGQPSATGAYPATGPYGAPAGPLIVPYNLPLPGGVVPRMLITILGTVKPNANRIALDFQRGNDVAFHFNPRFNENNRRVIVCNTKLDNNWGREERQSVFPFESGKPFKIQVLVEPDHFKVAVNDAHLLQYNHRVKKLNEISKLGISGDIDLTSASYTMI
RECORDED_ENDPOINT: Kd (mM)

{"MOLECULE": "COC(=O)c1ccc2nc(CO[C@@H]3C=CO[C@H](CO)[C@@H]3O)n(C)c2c1 [5a]", "ENDPOINT_UNIT": "mM", "Kd": 1.3}

a = O=C(O)c1ccc2nc(CO[C@@H]3C=CO[C@H](CO)[C@@H]3O)[nH]c2c1 [6c]
b = COC(=O)c1ccc2ccc(CO[C@@H]3C=CO[C@H](CO)[C@@H]3O)nc2c1 [compound 8]
c = OC[C@H]1OC=C[C@@H](O)[C@H]1O [compound 3, D-galactal]
Req: Arrange the 3 molecules by rising Kd, starting with the smallest. Reply with the labels, ordered as the question asks.
Resp: a, b, c
(a: 0.55 mM, b: 1.7 mM, c: 3.3 mM)
